Data provenance is PubChem BioAssay (EPA / NIEHS).

Read-out: CD40, CD40 (gene 958)
Experiment: BSK_SAg_CD40: BioMAP Diversity Plus: SAg Assay for CD40 Biomarker Activity (AID 2283088)
Conditions: primary human HUVEC with PBMC; actives raise or lower the signal
Active and inactive are the calls of the source. How the source made its calls: active means hit-call score of the fitted dose curve at least 0.9, where 1 is the maximum; inactive means score below 0.9.
Outcome codes: active, inactive

[[record]]
compound = "COCC(C)OCC(C)O (stereo unspecified)"
cat = "inactive"

[[record]]
compound = "Nc1cccc2c(N)cccc12"
cat = "inactive"

[[record]]
compound = "CC#C[C@]1(O)CC[C@H]2[C@@H]3CCC4=CC(=O)CCC4=C3[C@@H](c3ccc(N(C)C)cc3)C[C@@]21C"
cat = "active"

[[record]]
compound = "CCCOc1sc(C(=O)N2CCC(c3cc(CN)ccc3F)CC2)c(C)c1Br"
cat = "active"

[[record]]
compound = "CCC(=C(c1ccc(O)cc1)c1ccc(OCCN(C)C)cc1)c1ccccc1"
cat = "active"

[[record]]
compound = "CCCCOCCO"
cat = "inactive"

